- System: MDA-MB-231 breast
- Procedure Details: NCI-60 one-dose screen, 48 h (100 = growth as untreated, 0 = no growth, -100 = all killed)
- Condition Info: 10 µM
- Description: Cells are grown in 96 well plates and exposed to the test compound for 48 hours. Compounds are tested at a single concentration, which is 10^-5 M for most compounds. The reported endpoint is percent growth (GI% or GIPRCNT), where numbers from 0 - 100% represent growth inhibition, and numbers from -100% - 0 represent cell death. For example, a value of 40 represents 60% growth inhibition. A value of 0 means no net growth occurred over the course of the experiment. […]
This is part of a sample that, as a whole, favours compounds with a hit. Of some 83,000 tested, about 20% had one in any assay.
Collected growth values appear next to each entry.
Measurement Kind: growth (%)

In [3]: df
Out[3]:
                           molecular_string  measurement_kind  measurement_unit  observed_measurement
0  O=c1cc(-c2ccccc2)oc2cc(OCCCNCc3ccccc3)cc(O)c12            growth                 %                 -43.1
1        Brc1ccc(N/N=C/c2c[nH]c3ccccc23)nc1            growth                 %                   -26
2  O=C(O)CCCCCCCCCCN1C(=O)/C(=C/c2cnc(-c3ccccc3)s2)SC1=S            growth                 %                   100
3  CN1CCCN(Cc2ccc(C(=O)Nc3cccc(Nc4ccc5cc(O)ccc5n4)c3)cc2C(F)(F)F)CC1            growth                 %                  34.9
4  Cc1cc(C)nc(SCC(=O)Nc2ccc(S(N)(=O)=O)cc2)n1            growth                 %                   103

* * *

- Test system: OVCAR-5 ovarian
- Procedure Details: NCI-60 one-dose screen, 48 h
- Condition Info: 10 µM
- Method: Growth inhibition of the OVCAR-5 human tumor cell line is measured as a screen for anti-cancer activity. Cells are grown in 96 well plates and exposed to the test compound for 48 hours. Compounds are tested at a single concentration, which is 10^-5 M for most compounds. The reported endpoint is percent growth (GI% or GIPRCNT), where numbers from 0 - 100% represent growth inhibition, and numbers from -100% - 0 represent cell death. For example, a value of 40 represents 60% growth inhibition. […]
This is part of a sample that, as a whole, favours compounds with a hit. Of some 83,000 tested, about 20% had one in any assay. Activity calls are given as the source filed them. The calls were made as follows: active = growth percent below 10; inactive = the rest.
Labels: class 1 for active, class 0 for inactive

Compound	Assigned Label
CC[C@@]1(O)C(=O)OCc2c1cc1n(c2=O)Cc2c-1nc1cc(F)c(C)c3c1c2[C@@H](N)CC3	class 1
OCc1[nH]nc2cc(Nc3ncc4ccc(Br)c(OC5CCC(O)CC5)c4n3)ccc12 (configuration not stated)	class 1
CN1CCO/C1=C(/NC(=O)c1ccc(Cl)cc1)[P+](c1ccccc1)(c1ccccc1)c1ccccc1	class 0
COc1ccc(N(C)c2cc(C#N)nc3ccccc23)cc1N	class 0
CN1CCN(Cc2ccc(C(=O)Nc3cccc(Nc4ccc5c(O)cccc5n4)c3)cc2C(F)(F)F)CC1	class 1
O=C(Nc1ccc(OCc2ccccc2)cc1)Nc1ccc(Cl)c(C(F)(F)F)c1	class 0
CCOP(=O)(OCC)O[C@H]1CC[C@]2(C)[C@H]3CC[C@@H]4[C@@H]([C@](C)(O)CCC=C(C)C)CC[C@@]4(C)[C@]3(C)CC[C@H]2C1(C)C	class 0
C=C[C@H]1[C@H](O[C@@H]2OC(CO)[C@@H](O)[C@H](O)C2OC(=O)c2c(O)cc(O)cc2-c2cccc(O)c2)OC=C2C(=O)OCC[C@H]21 (some centres not stated)	class 0
O=C(COc1ccc(NC(=O)Nc2ccc(Cl)cc2)cc1)N=Nc1c(O)[nH]c2ccc([N+](=O)[O-])cc12	class 0
Cc1ccc(NCC(=O)Nn2c(COc3ccccc3)nc3ccccc3c2=O)cc1	class 0
[2H]C([2H])([2H])Oc1ccc2ncc(C#Cc3cncc(C(=O)Nc4ccc(CN5CCN(C)CC5)c(C(F)(F)F)c4)c3)n2n1	class 1
Cc1noc2c(Cc3ccccc3)nn(CC(=O)N/N=C/c3ccc(Cl)cc3)c(=O)c12	class 0
CCCCCCCCCCCCCCCCCCCC(=O)NCCc1c[nH]c2ccc(O)cc12	class 0
CN1CCN(c2ccc(Nc3nc(NCCNC(=O)c4ccc(C(F)(F)F)cc4)c4sccc4n3)cc2)CC1	class 0
O=C(NO)c1ccc(CNC(=O)[C@H]2Cc3c([nH]c4ccccc34)[C@H](c3ccccc3)N2)cc1	class 0
N#Cc1c(NC(=O)c2ccc(C(F)(F)F)cc2C(F)(F)F)sc2c1CCC(=O)C2	class 1
Cc1ccc(-c2cc(C(=O)N=Nc3c(O)[nH]c4ccccc34)c3ccccc3n2)cc1	class 0
